Values from ChEMBL document CHEMBL3046226

Here the recorded MIC is given for each entry.
- Tested on: Echinochloa crus-galli
- assay-details: Herbicidal activity against Echinochloa crus-galli (barnyard grass)
- Format: functional
Your answer is read as µg/mL, so omit the unit and give the number.

INSERT INTO assay_data (compound, measured_quantity, recorded_measurement) VALUES
  ('CC[C@H]1O[C@@H]2c3ccccc3CO[C@@H]2[C@H]1OCc1cccs1', 'MIC', 0.8),
  ('CC[C@H]1O[C@@H]2c3occc3CO[C@@H]2[C@H]1OCc1ccccc1C', 'MIC', 0.2),
  ('CC[C@H]1O[C@@H]2c3ccccc3CO[C@@H]2[C@H]1OCc1ccccc1F', 'MIC', 0.2),
  ('CC[C@H]1O[C@@H]2c3ccccc3C(C)O[C@@H]2[C@H]1OCc1ccccc1C (some centres undefined)', 'MIC', 0.2),
  ('Cc1ccccc1CO[C@H]1C[C@]2(C(C)C)CC[C@@]1(C)O2 (relative stereo)', 'MIC', 0.1);

Query: I'd like to know its MIC. The compound in question is CC[C@H]1O[C@@H]2c3ccccc3[C@H](C)O[C@@H]2[C@H]1OCc1ccccc1F
Result: 0.2

Query: Given the compound CC[C@H]1O[C@@H]2c3ccccc3CO[C@@H]2[C@H]1OC(C)c1ccccc1 (some centres undefined) , what is its reported MIC?
Result: 3

Query: Requested read-out: MIC. Entry: CC[C@H]1O[C@@H]2c3ccccc3CO[C@@H]2[C@H]1OCc1ccccc1C(F)(F)F
Result: 0.4

Query: Need MIC, item CC[C@H]1O[C@@H]2c3ccccc3[C@@H](C)O[C@@H]2[C@H]1OCc1ccccc1F
Result: 0.7

* * *

- Test system: Echinochloa crus-galli
- assay-details: Herbicidal activity against Echinochloa crus-galli (barnyard grass)
- Format: functional
measured-quantity: MIC (µg/mL)
Lab book: enter the figure in µg/mL, no units written.

// worked examples, MIC included
INSERT INTO measurements (smiles_string, unit_symbol, recorded_measurement) VALUES
  ('CC[C@H]1O[C@@H]2c3ccccc3CO[C@@H]2[C@H]1OCC1CCCCC1', 'µg/mL', 10),
  ('CC[C@H]1O[C@@H]2c3ccccc3CO[C@@H]2[C@H]1OCc1ccc(F)cc1', 'µg/mL', 1),
  ('CC[C@H]1O[C@@H]2c3ccccc3CO[C@@H]2[C@H]1OCc1cccc(F)c1', 'µg/mL', 0.3),
  ('CC[C@H]1O[C@@H]2c3ccsc3CO[C@@H]2[C@H]1OCc1ccccc1C', 'µg/mL', 0.7),
  ('CC[C@H]1O[C@@H]2c3ccsc3CO[C@@H]2[C@H]1OCc1ccccc1F', 'µg/mL', 0.3);

Query: What value of measured MIC is listed for CC[C@H]1O[C@@H]2c3ccccc3CO[C@@H]2[C@H]1OC(=O)c1ccccc1 ?
Result: 3.3

Query: GET /values?readout=MIC&item= CC[C@H]1O[C@@H]2c3ccccc3CO[C@@H]2[C@H]1OCc1ccccc1C#N
Result: 3.2

Query: Which MIC is listed for CC[C@H]1O[C@@H]2c3ccccc3CO[C@@H]2[C@H]1OCc1ccccc1Cl ?
Result: 0.2

Query: Which MIC value belongs to CC[C@H]1O[C@@H]2c3ccccc3CO[C@@H]2[C@H]1OCc1ccsc1 ?
Result: 0.3

Query: MIC; subject: CC[C@H]1O[C@@H]2c3sccc3CO[C@@H]2[C@H]1OCc1ccccc1F
Result: 0.1
